- subjectOfTest: WT EGFR (A431 cells) (Homo sapiens (Human))
- Sequence (P00533 25-1210): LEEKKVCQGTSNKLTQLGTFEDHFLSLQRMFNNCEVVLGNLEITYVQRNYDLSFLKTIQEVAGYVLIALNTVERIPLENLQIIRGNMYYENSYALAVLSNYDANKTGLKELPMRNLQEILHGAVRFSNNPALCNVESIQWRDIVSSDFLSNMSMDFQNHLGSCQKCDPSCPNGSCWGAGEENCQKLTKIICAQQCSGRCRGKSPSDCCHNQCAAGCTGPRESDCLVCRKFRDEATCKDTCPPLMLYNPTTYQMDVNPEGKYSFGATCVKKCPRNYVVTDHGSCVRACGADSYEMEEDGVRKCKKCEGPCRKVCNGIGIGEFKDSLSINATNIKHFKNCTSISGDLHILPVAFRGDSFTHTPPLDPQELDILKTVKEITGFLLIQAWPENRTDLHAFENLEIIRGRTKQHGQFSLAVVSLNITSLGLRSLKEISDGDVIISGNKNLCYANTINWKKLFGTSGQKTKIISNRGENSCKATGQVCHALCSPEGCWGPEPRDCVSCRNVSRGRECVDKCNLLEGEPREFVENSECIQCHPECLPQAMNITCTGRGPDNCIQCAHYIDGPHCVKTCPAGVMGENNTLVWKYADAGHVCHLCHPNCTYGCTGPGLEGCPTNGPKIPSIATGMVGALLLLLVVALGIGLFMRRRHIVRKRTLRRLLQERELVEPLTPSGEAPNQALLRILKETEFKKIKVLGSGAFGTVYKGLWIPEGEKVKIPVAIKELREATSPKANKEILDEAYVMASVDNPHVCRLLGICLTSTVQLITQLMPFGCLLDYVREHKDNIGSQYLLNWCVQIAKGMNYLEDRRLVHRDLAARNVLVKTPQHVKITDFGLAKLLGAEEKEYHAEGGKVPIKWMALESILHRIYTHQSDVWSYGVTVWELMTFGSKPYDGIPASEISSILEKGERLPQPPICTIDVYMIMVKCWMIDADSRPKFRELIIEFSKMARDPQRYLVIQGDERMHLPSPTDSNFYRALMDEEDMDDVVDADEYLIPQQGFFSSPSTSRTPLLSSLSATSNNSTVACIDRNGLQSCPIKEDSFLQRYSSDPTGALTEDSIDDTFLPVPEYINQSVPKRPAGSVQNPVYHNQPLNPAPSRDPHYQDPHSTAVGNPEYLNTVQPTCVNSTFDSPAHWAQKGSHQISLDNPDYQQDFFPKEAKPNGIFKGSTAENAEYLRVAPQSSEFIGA
- assayInfo: Phospho-EGFR signaling (immunoblotting, 1 hr) in A431 cells
- Format: cell-based
- testContext: 1 hr compound, EGF stimulated, phospho-EGFR (Y1068)
Each entry below carries its reported EC50.

>>> df
                                        mol                             subjectoftest  reportedmetric  readoutvalue
0  C=CC(=O)Nc1cccc(Nc2nc(Nc3ccc(NC4CN(C(=O)OC(C)(C)C)C4)cc3OC)ncc2C(F)(F)F)c1  WT EGFR (A431 cells) (Homo sapiens (Human))            EC50     > 1000 nM

IN: Lab note: need EC50 for "C=CC(=O)Nc1cccc(Nc2nc(Nc3ccc(NC4CN(CCF)C4)cc3OC)ncc2C(F)(F)F)c1" on WT EGFR (A431 cells) (Homo sapiens (Human)), anyone have it?
OUT: > 1000 nM

###

- subjectOfTest: EGFR-T790M/L858R (Homo sapiens (Human), UniProt P00533, L858R/T790M)
- assayInfo: Omnia biochemical assay, EGFR (T790M/L858R) active enzyme
- testContext: [EGFR-T790M/L858R]=2.5 nM, [ATP]=20 uM, 30 min pre-incubation
reportedMetric: IC50

Worked cases, IC50 given:
                                   compound                             subjectoftest  readoutvalue
0  C=CC(=O)Nc1cccc(Nc2nc(Nc3ccc(NC4CN(C(C)=O)C4)cc3OC)ncc2C(F)(F)F)c1 [Compound I-2]  EGFR-T790M/L858R (Homo sapiens (Human), UniProt P00533, L858R/T790M)        < 1 nM
1  C=CC(=O)Nc1cccc(Oc2nc(Nc3ccc(NC(C)C)cc3OC)ncc2Cl)c1 [Compound I-4]  EGFR-T790M/L858R (Homo sapiens (Human), UniProt P00533, L858R/T790M)    1 to 10 nM

IN: Item under review: C=CC(=O)Nc1cccc(Nc2nc(Nc3ccc(NC4CN(C(=O)OC(C)(C)C)C4)cc3OC)ncc2C(F)(F)F)c1 [Compound I-3] . Reported IC50?
OUT: 1 to 10 nM

IN: Item under review: C=CC(=O)Nc1cccc(Nc2nc(Nc3ccc(NC(C)C)cc3OC)ncc2C(F)(F)F)c1 [Compound I-5] . Reported IC50?
OUT: < 1 nM

IN: Item under review: C=CC(=O)Nc1cccc(Nc2nc(Nc3ccc(NC4CN(CCF)C4)cc3OC)ncc2C(F)(F)F)c1 [Compound I-1] . Reported IC50?
OUT: < 1 nM

###

Each entry below carries its reported EC50.
- subjectOfTest: EGFR double mutation L858R/T790M (H1975 cells) (Homo sapiens (Human), UniProt P00533, L858R/T790M)
- Sequence (P00533 25-1210 T790M/L858R): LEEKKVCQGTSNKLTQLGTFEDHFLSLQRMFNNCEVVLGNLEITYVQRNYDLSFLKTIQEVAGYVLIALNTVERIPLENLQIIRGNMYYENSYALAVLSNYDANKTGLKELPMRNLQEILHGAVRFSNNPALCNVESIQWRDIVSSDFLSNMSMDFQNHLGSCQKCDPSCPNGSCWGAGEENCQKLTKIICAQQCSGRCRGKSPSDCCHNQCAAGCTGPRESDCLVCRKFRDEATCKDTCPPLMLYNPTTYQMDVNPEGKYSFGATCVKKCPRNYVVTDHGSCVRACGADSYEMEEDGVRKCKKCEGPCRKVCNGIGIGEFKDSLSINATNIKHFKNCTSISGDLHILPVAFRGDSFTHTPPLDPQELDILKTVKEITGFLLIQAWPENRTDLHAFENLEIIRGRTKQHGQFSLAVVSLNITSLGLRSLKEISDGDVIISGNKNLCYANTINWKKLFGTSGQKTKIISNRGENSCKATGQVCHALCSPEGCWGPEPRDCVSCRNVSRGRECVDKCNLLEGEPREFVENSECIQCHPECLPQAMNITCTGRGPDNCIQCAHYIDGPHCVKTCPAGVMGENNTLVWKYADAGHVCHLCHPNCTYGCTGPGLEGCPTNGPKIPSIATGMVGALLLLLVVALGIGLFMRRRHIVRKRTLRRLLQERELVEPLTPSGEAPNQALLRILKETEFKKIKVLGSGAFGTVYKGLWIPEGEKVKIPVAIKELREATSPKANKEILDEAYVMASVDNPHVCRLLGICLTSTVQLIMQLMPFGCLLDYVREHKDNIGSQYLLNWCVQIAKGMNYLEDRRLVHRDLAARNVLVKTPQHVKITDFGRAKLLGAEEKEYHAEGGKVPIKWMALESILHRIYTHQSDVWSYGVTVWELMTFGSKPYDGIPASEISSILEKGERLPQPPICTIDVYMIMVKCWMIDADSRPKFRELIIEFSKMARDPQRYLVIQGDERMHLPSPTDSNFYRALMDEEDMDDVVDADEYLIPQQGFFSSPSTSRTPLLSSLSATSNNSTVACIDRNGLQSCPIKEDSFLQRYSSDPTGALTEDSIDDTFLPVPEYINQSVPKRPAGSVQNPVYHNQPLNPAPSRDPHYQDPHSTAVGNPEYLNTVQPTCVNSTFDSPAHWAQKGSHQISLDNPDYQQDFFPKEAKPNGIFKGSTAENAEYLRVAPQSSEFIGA
- assayInfo: Phospho-EGFR signaling (immunoblotting, 1 hr) in H1975 cells
- testContext: H1975 cells, 1 hr compound, phospho-EGFR (Y1068)

>>> print(df.to_string())
                                        mol  readoutvalue
0  C=CC(=O)Nc1cccc(Nc2nc(Nc3ccc(NC4CN(CCF)C4)cc3OC)ncc2C(F)(F)F)c1  10 to 100 nM

Now consider a different molecule.
IN: Item under review: "C=CC(=O)Nc1cccc(Nc2nc(Nc3ccc(NC4CN(C(=O)OC(C)(C)C)C4)cc3OC)ncc2C(F)(F)F)c1" . Reported EC50?
OUT: 100 to 500 nM
